Target: MERTK (UniProt Q12866)
Sequence (Q12866 whole entry, looked up): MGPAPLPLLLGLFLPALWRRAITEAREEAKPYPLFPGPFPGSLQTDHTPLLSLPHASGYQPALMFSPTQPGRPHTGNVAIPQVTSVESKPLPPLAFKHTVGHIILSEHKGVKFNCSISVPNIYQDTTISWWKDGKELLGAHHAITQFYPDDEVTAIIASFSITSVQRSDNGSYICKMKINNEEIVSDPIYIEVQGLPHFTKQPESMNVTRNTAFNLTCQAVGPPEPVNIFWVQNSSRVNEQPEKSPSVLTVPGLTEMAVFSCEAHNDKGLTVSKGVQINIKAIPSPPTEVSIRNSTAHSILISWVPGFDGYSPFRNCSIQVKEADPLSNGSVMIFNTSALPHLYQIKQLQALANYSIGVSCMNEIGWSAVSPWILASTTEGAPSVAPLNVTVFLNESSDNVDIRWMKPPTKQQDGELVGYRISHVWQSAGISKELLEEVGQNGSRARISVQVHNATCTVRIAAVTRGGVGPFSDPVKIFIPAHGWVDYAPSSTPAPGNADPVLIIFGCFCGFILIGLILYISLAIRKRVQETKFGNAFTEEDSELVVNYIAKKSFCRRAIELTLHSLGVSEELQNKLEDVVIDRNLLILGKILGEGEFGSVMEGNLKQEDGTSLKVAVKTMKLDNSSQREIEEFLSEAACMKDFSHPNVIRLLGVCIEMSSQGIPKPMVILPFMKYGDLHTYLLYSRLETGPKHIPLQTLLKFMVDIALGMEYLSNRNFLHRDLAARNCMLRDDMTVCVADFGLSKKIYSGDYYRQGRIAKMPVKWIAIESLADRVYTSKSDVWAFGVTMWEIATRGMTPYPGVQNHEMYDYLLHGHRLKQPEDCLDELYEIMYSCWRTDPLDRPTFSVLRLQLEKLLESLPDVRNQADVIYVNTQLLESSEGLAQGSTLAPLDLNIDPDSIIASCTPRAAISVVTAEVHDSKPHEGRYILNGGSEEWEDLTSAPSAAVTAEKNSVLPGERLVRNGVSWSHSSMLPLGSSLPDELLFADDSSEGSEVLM
Assay: phosphorylation enrichment, bacterial display (enrichment ratio); higher = better substrate or ligand; peptides without Tyr show the background;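 note: 11-residue human phosphosite peptides and single-mutation variants displayed on the E. coli surface, counted by deep sequencing, each peptide's frequency after selection divided by its frequency in the unselected input library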;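 note: frequency after pTyr selection over input frequency; kinase dosed for 20-30% of maximal phosphorylation in three min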
Below: a set of entries, each annotated with reported phosphorylation enrichment.
// no unit string in output, number only

Solved cases below.
sequence_record="YASALYRQRRS [FGF11_Y162]" tested_system="MERTK (UniProt Q12866)" parameter="phosphorylation enrichment" value_observed=0.535
sequence_record="WQLEIYRASRP [ERCC4_Y594_R589W]" tested_system="MERTK (UniProt Q12866)" parameter="phosphorylation enrichment" value_observed=0.521
sequence_record="EKKQTYGSCRK [LACTB_Y473_R469K]" tested_system="MERTK (UniProt Q12866)" parameter="phosphorylation enrichment" value_observed=0.366

[Q] Please tell me: phosphorylation enrichment of KILGRYYETGS [PAX2_Y72] , system MERTK (UniProt Q12866)?
[A] 0.548

[Q] Tell me reported phosphorylation enrichment for QSSALYEDHYL [ASS1_Y83_R86H] , tested with MERTK (UniProt Q12866).
[A] 1.33

[Q] // lookup phosphorylation enrichment | system=MERTK (UniProt Q12866) | key= LKLIQYHLIQQ [AKAP4_Y554_T557I]
[A] 0.774

[Q] Provide the documented phosphorylation enrichment with MERTK (UniProt Q12866) as the system for MKGDYYRYLAE [YWHAG_Y131]
[A] 0.718

[Q] Provide the documented phosphorylation enrichment with MERTK (UniProt Q12866) as the system for PFRSIYFSSPK [MPG_Y75_YF]
[A] 0.463

[Q] Hi! What's the reported phosphorylation enrichment for HGEAVYSRDCV [XPC_Y676_R671H] on MERTK (UniProt Q12866)?
[A] 0.89

[Q] Lab request: please report phosphorylation enrichment under test system MERTK (UniProt Q12866) for AFDNLYFWDQD [ERBB2_Y1221_YF]
[A] 5.13

[Q] # returns recorded phosphorylation enrichment (system: MERTK (UniProt Q12866)) for LNPLFYSLRNK [OR5R1_Y290_I289F]
[A] 0.395

[Q] Recorded phosphorylation enrichment for GINDDHGQLKN [NBN_Y679_Y679H] with MERTK (UniProt Q12866), please?
[A] 0.473

[Q] Requested read-out phosphorylation enrichment, target or system MERTK (UniProt Q12866), entry GSSEDYLHMVH [NIPBL_Y247]
[A] 0.485

[Q] Lab note: need phosphorylation enrichment for RPLVVYPWTQR [HBB_Y36_L32P] on MERTK (UniProt Q12866), anyone have it?
[A] 0.389

* * *

Target: Fyn (UniProt P06241)
Sequence (P06241 whole entry, looked up): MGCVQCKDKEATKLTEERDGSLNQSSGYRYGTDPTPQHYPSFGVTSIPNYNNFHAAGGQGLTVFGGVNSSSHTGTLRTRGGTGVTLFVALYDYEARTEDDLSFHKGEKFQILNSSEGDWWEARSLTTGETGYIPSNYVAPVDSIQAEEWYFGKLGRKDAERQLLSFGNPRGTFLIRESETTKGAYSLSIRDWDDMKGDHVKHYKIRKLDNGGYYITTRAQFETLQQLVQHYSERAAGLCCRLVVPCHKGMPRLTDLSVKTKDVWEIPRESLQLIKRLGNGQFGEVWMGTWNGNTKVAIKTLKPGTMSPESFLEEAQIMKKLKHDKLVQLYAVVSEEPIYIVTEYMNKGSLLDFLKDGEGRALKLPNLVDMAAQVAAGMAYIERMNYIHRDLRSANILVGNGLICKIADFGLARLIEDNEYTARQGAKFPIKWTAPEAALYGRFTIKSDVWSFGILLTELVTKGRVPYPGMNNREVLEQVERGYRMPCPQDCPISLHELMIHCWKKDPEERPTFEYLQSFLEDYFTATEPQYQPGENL
Assay: phosphorylation enrichment, bacterial display (enrichment ratio); higher = better substrate or ligand; peptides without Tyr show the background
parameter: phosphorylation enrichment
// keep it numeric: no unit symbol after the value

[Q] Can you share its phosphorylation enrichment? I mean this sequence: TYTVSYLPDMS [FLNC_Y1602]
[A] 0.568

[Q] What phosphorylation enrichment value was documented for this sequence, EQFELYCEMGS [CBL_Y371_YF] ?
[A] 1.43

[Q] If you can, please state the reported phosphorylation enrichment value of RRAKGYPIDLF [ITGB2_Y125_YF] .
[A] 0.563

[Q] Find the recorded phosphorylation enrichment belonging to KGPNVCKKTVN [REV3L_Y1156_Y1156C] and report it.
[A] 0.378

[Q] Item under review: QHNPEYVQQAT [LRRC7_Y1058_S1063T] . Reported phosphorylation enrichment?
[A] 0.422

[Q] Need phosphorylation enrichment, item KTTGGYAGGLS [KRT8_Y419_S417G]
[A] 0.413

[Q] Query (sequence): RDSQIYAVDFE [MRPS34_Y34_L33I_YF] ; field requested: phosphorylation enrichment
[A] 6.32

Data origin, for the record: the supplement of paper PMC10065799
